protocol.text: Rat pharmacokinetics (IV and PO)
Format: in vivo, male Sprague-Dawley rats
condition.description: male, Sprague-Dawley, plasma, po, 10 mg/kg, PO 10 mg/kg, 30% PG, 20% PEG-400, 0.5% MC in water (solution), read-out: T½ (converted)

# molecule, half-life [h]
rows = [
    ("C[C@@H]1CN(c2ncc(C#N)cn2)C[C@H](C)N1C(=O)NCCC1CCN(Cc2ccccc2)CC1", 3.65),
]

----------
# efflux ratio at 2 h, 5 µM per record follows
target.desc: MDR1 (Multidrug resistance protein 1) (Homo sapiens, UniProt P08183)
Construct: host or cells: MDCK cells
protocol.text: MDCK-MDR1 assay (apparent permeability and efflux ratio)
Type: in vitro ADME
condition.description: MDCK-MDR1, pH 7.4, Papp B>A/Papp A>B

# compound, efflux ratio at 2 h, 5 µM
records = [
    ("C[C@@H]1CN(c2cnc(C(F)(F)F)cn2)C[C@H](C)N1C(=O)OCCC1CCN(Cc2ccccc2)CC1 [Compound 1]", 1.42),
    ("C[C@@H]1CN(c2cnc(C(F)(F)F)cn2)C[C@@H](C)N1C(=O)OCCC1CCN(Cc2ccccc2)CC1 [Compound 2]", 1.38),
    ("C[C@@H]1CN(c2cnc(C(F)(F)F)cn2)C[C@@H](C)N1C(=O)NCCC1CCN(Cc2ccccc2)CC1 [Compound 4A]", 125),
    ("C[C@@H]1CN(c2ncc(C#N)cn2)C[C@H](C)N1C(=O)NCCC1CCN(Cc2ccccc2)CC1 [Compound 3A]", 96.6),
]

----------
protocol.text: Rat pharmacokinetics (IV and PO)
Format: in vivo, male Sprague-Dawley rats
condition.description: male, Sprague-Dawley, plasma, po, 10 mg/kg, PO 10 mg/kg, 5% Tween-80 in 0.5% (w/v) MC in water (suspension)

# molecule, Cmax [ng/mL]
rows = [
    ("C[C@@H]1CN(c2cnc(C(F)(F)F)cn2)C[C@@H](C)N1C(=O)NCCC1CCN(Cc2ccccc2)CC1", 231),
    ("C[C@@H]1CN(c2ncc(C#N)cn2)C[C@H](C)N1C(=O)NCCC1CCN(Cc2ccccc2)CC1", 205),
]

----------
protocol.text: Rat pharmacokinetics (IV and PO)
Type: in vivo, male Sprague-Dawley rats
condition.description: male, Sprague-Dawley, plasma, po, 10 mg/kg, PO 10 mg/kg, 5% Tween-80 in 0.5% (w/v) MC in water (suspension), read-out: T½ (converted)
reported.metric: half-life (h)

# compound, observed
data = [
    ("C[C@@H]1CN(c2ncc(C#N)cn2)C[C@H](C)N1C(=O)NCCC1CCN(Cc2ccccc2)CC1 [Compound 3A]", 3.21),
    ("C[C@@H]1CN(c2cnc(C(F)(F)F)cn2)C[C@@H](C)N1C(=O)NCCC1CCN(Cc2ccccc2)CC1 [Compound 4A]", 7.09),
]

----------
# AUC(0-inf) per record follows
protocol.text: Rat pharmacokinetics (IV and PO)
Assay type: in vivo, male Sprague-Dawley rats
condition.description: male, Sprague-Dawley, plasma, po, 10 mg/kg, PO 10 mg/kg, 5% Tween-80 in 0.5% (w/v) MC in water (suspension)

# molecule, AUC(0-inf) / ng·h/mL
rows = [
    ("C[C@@H]1CN(c2cnc(C(F)(F)F)cn2)C[C@@H](C)N1C(=O)NCCC1CCN(Cc2ccccc2)CC1", 3500),
    ("C[C@@H]1CN(c2ncc(C#N)cn2)C[C@H](C)N1C(=O)NCCC1CCN(Cc2ccccc2)CC1", 1150),
]

----------
# Tmax per record follows
protocol.text: Rat pharmacokinetics (IV and PO)
Assay type: in vivo, male Sprague-Dawley rats
condition.description: male, Sprague-Dawley, plasma, po, 10 mg/kg, PO 10 mg/kg, 10% PEG-400 in 0.5% MC in water (solution), read-out: Tmax range

# molecule, Tmax
measured = [
    ("C[C@@H]1CN(c2cnc(C(F)(F)F)cn2)C[C@@H](C)N1C(=O)OCCC1CCN(Cc2ccccc2)CC1", "2 to 7.5 h"),
    ("C[C@@H]1CN(c2cnc(C(F)(F)F)cn2)C[C@@H](C)N1C(=O)NCCC1CCN(Cc2ccccc2)CC1", "0.5 to 2 h"),
    ("C[C@@H]1CN(c2cnc(C(F)(F)F)cn2)C[C@H](C)N1C(=O)OCCC1CCN(Cc2ccccc2)CC1", "0.5 to 1 h"),
]

----------
# half-life per record follows
protocol.text: Rat pharmacokinetics (IV and PO)
Type: in vivo, male Sprague-Dawley rats
condition.description: male, Sprague-Dawley, plasma, iv, 1 mg/kg, IV bolus, 1 mg/kg, HCl salt, read-out: T½ (converted)
reported.metric: half-life (h)

# molecule, observed
data = [
    ("C[C@@H]1CN(c2cnc(C(F)(F)F)cn2)C[C@H](C)N1C(=O)OCCC1CCN(Cc2ccccc2)CC1", 9.1),
    ("C[C@@H]1CN(c2cnc(C(F)(F)F)cn2)C[C@@H](C)N1C(=O)NCCC1CCN(Cc2ccccc2)CC1", 5.01),
]

----------
protocol.text: Rat pharmacokinetics (IV and PO)
Assay type: in vivo, male Sprague-Dawley rats
condition.description: male, Sprague-Dawley, plasma, iv, 2.5 mg/kg, IV bolus, HCl salt
reported.metric: AUC(0-inf)

# molecule, observed
records = [
    ("C[C@@H]1CN(c2ncc(C#N)cn2)C[C@H](C)N1C(=O)NCCC1CCN(Cc2ccccc2)CC1", "882 ng·h/mL"),
]

----------
protocol.text: Rat pharmacokinetics (IV and PO)
Type: in vivo, male Sprague-Dawley rats
condition.description: male, Sprague-Dawley, plasma, po, 10 mg/kg, PO 10 mg/kg, 10% PEG-400 in 0.5% MC in water (solution)
# AUC(0-t) per record follows
reported.metric: AUC(0-t) (ng·h/mL)

# molecule, reported.metric, observed
data = [
    ("C[C@@H]1CN(c2cnc(C(F)(F)F)cn2)C[C@H](C)N1C(=O)OCCC1CCN(Cc2ccccc2)CC1", "AUC(0-t)", 3150),
    ("C[C@@H]1CN(c2cnc(C(F)(F)F)cn2)C[C@@H](C)N1C(=O)NCCC1CCN(Cc2ccccc2)CC1", "AUC(0-t)", 1700),
    ("C[C@@H]1CN(c2cnc(C(F)(F)F)cn2)C[C@@H](C)N1C(=O)OCCC1CCN(Cc2ccccc2)CC1", "AUC(0-t)", 2190),
]

----------
# half-life per record follows
protocol.text: Rat pharmacokinetics (IV and PO)
Format: in vivo, male Sprague-Dawley rats
condition.description: male, Sprague-Dawley, plasma, po, 10 mg/kg, PO 10 mg/kg, 10% PEG-400 in 0.5% MC in water (solution), read-out: T½ (converted)
reported.metric: half-life (h)

# molecule, readout.units, observed
data = [
    ("C[C@@H]1CN(c2cnc(C(F)(F)F)cn2)C[C@@H](C)N1C(=O)NCCC1CCN(Cc2ccccc2)CC1", "h", 4.2),
    ("C[C@@H]1CN(c2cnc(C(F)(F)F)cn2)C[C@@H](C)N1C(=O)OCCC1CCN(Cc2ccccc2)CC1", "h", 12.9),
]
